src = patent US20060270634A1

- study target: LPA3 (Homo sapiens, UniProt Q9UBY5)
- Sequence (Q9UBY5 1-353): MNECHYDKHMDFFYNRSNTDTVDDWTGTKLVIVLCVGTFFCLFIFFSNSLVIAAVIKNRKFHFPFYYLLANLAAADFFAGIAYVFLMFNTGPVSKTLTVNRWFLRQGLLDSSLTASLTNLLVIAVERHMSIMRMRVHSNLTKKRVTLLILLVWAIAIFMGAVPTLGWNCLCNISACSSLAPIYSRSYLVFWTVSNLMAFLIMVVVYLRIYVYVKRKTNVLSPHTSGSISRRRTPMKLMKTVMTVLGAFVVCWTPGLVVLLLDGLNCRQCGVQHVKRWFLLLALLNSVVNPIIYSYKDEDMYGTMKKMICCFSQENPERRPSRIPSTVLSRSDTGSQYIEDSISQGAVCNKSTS
- assay comment: Ca2+ transients in RH7777 cells expressing LPA3 (agonist / inhibition of LPA response)
- setup conditions: read-out: LPA3 EC50; Table 5
reported endpoint: EC50 (nM)
Numeric only. Scale: nM

Look up and report measured EC50 (LPA3 (Homo sapiens, UniProt Q9UBY5)) for the following compound: CCCCCCCCOC[C@H](COP(O)(O)=S)OCCCCCCCC [Cpd 13b, 2(R)-ATPA 8:0] 3

Look up and report measured EC50 (LPA3 (Homo sapiens, UniProt Q9UBY5)) for the following compound: CCCCCCCC(=O)OC[C@@H](COP(O)(O)=S)OC(=O)CCCCCCC [Cpd 8a, thiophosphatidic acid 8:0] 115

Look up and report measured EC50 (LPA3 (Homo sapiens, UniProt Q9UBY5)) for the following compound: CCCCCCCCOC[C@H](COP(=O)(O)O)OCCCCCCCC [Cpd 12b, (2R)-APA 8:0] 164

* * *

- study target: LPA1 (Homo sapiens, UniProt Q92633)
- Sequence (Q92633 whole entry, species assumed): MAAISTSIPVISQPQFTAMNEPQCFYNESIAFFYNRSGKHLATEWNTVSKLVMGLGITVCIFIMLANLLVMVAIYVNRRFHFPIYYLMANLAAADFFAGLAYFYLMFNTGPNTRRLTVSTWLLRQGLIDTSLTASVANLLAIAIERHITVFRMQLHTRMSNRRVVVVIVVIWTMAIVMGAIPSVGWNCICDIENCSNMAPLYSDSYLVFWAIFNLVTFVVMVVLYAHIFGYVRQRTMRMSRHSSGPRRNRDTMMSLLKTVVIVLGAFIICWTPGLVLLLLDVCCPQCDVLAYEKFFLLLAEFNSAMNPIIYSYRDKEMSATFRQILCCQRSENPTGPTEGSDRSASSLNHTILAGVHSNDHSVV
- assay comment: Ca2+ transients in RH7777 cells expressing LPA1 (agonist / inhibition of LPA response)
- setup conditions: RH-LPA1 cells EC50, compound alone
reported endpoint: EC50 (nM)
Numeric only. Scale: nM

Could you please provide reported EC50 for CCCCCCCC/C=C\CCCCCCCC1OCC(COP([O-])(O)=S)O1.[K+] (stereo not shown) ? Thanks! 2170

* * *

- study target: LPA2 (Homo sapiens)
- Sequence (Q9HBW0 whole entry, species assumed): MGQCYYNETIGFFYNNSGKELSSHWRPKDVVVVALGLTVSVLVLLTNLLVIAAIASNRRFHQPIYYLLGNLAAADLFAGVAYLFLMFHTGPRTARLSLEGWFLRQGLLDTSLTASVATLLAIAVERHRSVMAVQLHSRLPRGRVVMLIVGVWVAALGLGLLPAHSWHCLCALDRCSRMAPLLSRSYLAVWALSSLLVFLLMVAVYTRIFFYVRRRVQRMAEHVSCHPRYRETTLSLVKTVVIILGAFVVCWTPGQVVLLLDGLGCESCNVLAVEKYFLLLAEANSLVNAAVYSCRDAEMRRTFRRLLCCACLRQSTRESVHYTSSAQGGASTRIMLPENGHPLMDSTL
- assay comment: Ca2+ transients in RH7777 cells expressing LPA2 (agonist / inhibition of LPA response)
- setup conditions: RH-LPA2 cells EC50, compound alone
reported endpoint: EC50 (nM)
Numeric only. Scale: nM

Could you please provide reported EC50 for CCCCCCCC/C=C\CCCCCCCC1OCC(COP([O-])(O)=S)O1.[K+] (stereo not shown) ? Thanks! 639

* * *

What IC50 was measured for each of the following?
- study target: LPA3 (Homo sapiens)
- assay comment: Ca2+ transients in RH7777 cells expressing LPA3 (agonist / inhibition of LPA response)
Numeric only. Scale: µM

Could you please provide reported IC50 for CCCCCCCCc1ccc(CCCCCCCOP(=O)(O)O)cc1 ? Thanks! 1.76

Could you please provide reported IC50 for CCCCCCCC/C=C\CCCCCCC[C@@H]1OC[C@H](COP(=O)(O)O)O1 ? Thanks! 0.484

Could you please provide reported IC50 for CCCCCCCCc1ccc(CCCCCCC2OCC(COP([O-])(O)=S)O2)cc1.[K+] (centres unmarked) ? Thanks! 0.504

Could you please provide reported IC50 for CCCCCCCCCCCCC1OCC(COP(=O)(O)O)O1 (centres unmarked) ? Thanks! 2.87

Could you please provide reported IC50 for CCCCCCCC/C=C\CCCCCCCC1OCC(COP(=O)([O-])O)O1.[K+] (centres unmarked) ? Thanks! 0.527

* * *

- study target: UniProtKB Q9HBW0
- assay comment: Ca2+ transients in RH7777 cells expressing LPA2 (agonist / inhibition of LPA response)
- setup conditions: LPA2 EC50, Table 4
What EC50 was measured for each of the following?

Could you please provide reported EC50 for CCCCCCCCCCCCCCC(F)(F)P(=O)(O)O ? Thanks! ~10 µM

Could you please provide reported EC50 for CCCCCCCCc1ccc(CCCCCCCOP(O)(O)=S)cc1 ? Thanks! 6.06 µM

* * *

What pIC50 was measured for each of the following?
- study target: LPA3 (Homo sapiens, UniProt Q9UBY5)
- assay comment: Ca2+ transients in RH7777 cells expressing LPA3 (agonist / inhibition of LPA response)
- setup conditions: read-out: LPA3 IC50; 200 nM LPA
Note on pIC50: it is the negative log10 of concentration, concentration in mol/L.

Could you please provide reported pIC50 for CCCCCCCC/C=C\CCCCCCCC1OCC(COP(=O)([O-])O)O1.[K+] (centres unmarked) ? Thanks! 6.28

Could you please provide reported pIC50 for CCCCCCCCCCCCC1OCC(COP(=O)(O)O)O1 (centres unmarked) ? Thanks! 5.54

Could you please provide reported pIC50 for CCCCCCCCOC[C@@H](COP(=O)(O)O)OCCCCCCCC [Cpd 12a] ? Thanks! 6.84

Could you please provide reported pIC50 for CCCCCCCCOC[C@@H](COP(O)(O)=S)OCCCCCCCC [Cpd 13a, dialkyl thiophosphatidic acid 8:0] ? Thanks! 6.74

Could you please provide reported pIC50 for CCCCCCCCCCCCCCC(F)(F)P(=O)(O)O ? Thanks! 5.82

* * *

What EC50 was measured for each of the following?
- study target: LPA2 (Homo sapiens)
- assay comment: Ca2+ transients in RH7777 cells expressing LPA2 (agonist / inhibition of LPA response)
- setup conditions: LPA2 (nM) EC50, Table 1

Could you please provide reported EC50 for CCCCCCCC/C=C\CCCCCCC[C@H]1OC[C@H](COP(=O)(O)O)O1 [Analog 23] ? Thanks! > 30000 nM

Could you please provide reported EC50 for CCCCCCCCc1ccc(CCCCCCC2OCC(COP([O-])(O)=S)O2)cc1.[K+] (stereo not shown) [Analog 15] ? Thanks! > 30000 nM

Could you please provide reported EC50 for CCCCCCCCc1ccc(CCCCCCC2OCC(COP(=O)(O)O)O2)cc1 (stereo not shown) [Analog 14] ? Thanks! > 30000 nM

Could you please provide reported EC50 for CCCCCCCC/C=C\CCCCCCC[C@@H]1OC[C@H](COP(=O)(O)O)O1 [Analog 21] ? Thanks! > 10000 nM

* * *

- study target: LPA3 (Homo sapiens, UniProt Q9UBY5)
- assay comment: Ca2+ transients in RH7777 cells expressing LPA3 (agonist / inhibition of LPA response)
reported endpoint: IC50

Could you please provide reported IC50 for CCCCCCCC/C=C\CCCCCCC[C@@H]1OC[C@H](COP(O)(O)=S)O1 [Analog 22] ? Thanks! > 30 µM

Could you please provide reported IC50 for CCCCCCCC/C=C\CCCCCCCC1OCC(COP([O-])(O)=S)O1.[K+] (stereo not drawn) [Analog 6] ? Thanks! > 30 µM

Could you please provide reported IC50 for CCCCCCCCc1ccc(CCCCCCC2OCC(COP(=O)(O)O)O2)cc1 (stereo not drawn) [Analog 14] ? Thanks! > 30 µM
